- Tested on: 786-0 renal
- measurement.notes: NCI tumour cell line growth inhibition, 48 h
Recorded TGI, one value per entry.

compound	uom	prefix.operator	TGI
CC1CC(=O)NC2CC1C2(C)C (centres undefined)	µM	>	100
COc1ccc(OC)c(/C=C/c2cnnc3ccccc23)c1	µM	>	10
O=C1C=Cc2c(I)sc(I)c21	µM	=	22.8
Cc1cc(Cl)ccc1Nc1nc(C(F)(F)F)ccc1C(=O)N/N=C/c1ccc(F)cc1	µM	=	5.93
COc1ccc(C2SC(C)C(=O)N2NC(=O)C(O)c2ccccc2)cc1 (centres undefined)	µM	>	100
CCOC(=O)C1C(=O)CC(C)(O)C(C(=O)OCC)C1c1ccc(OC)cc1 (centres undefined)	µM	>	100
Cc1ccc(C2CC(c3cccc(Nc4ccncc4)c3)=NN2c2ccc(Cl)cc2)cc1 (centres undefined)	µM	=	3.16
Cc1cc2nc3c(C#N)c(-c4ccccc4)cc(Nc4cccc(C(F)(F)F)c4)n3c2cc1C	µM	=	18.6
C[C@H]1[C@H](C)CC[C@]2(C(=O)O)CC[C@]3(C)C(=CC[C@@H]4[C@@]5(C)CC[C@H](OC(=O)/C=C\c6ccc(O)cc6)C(C)(C)[C@@H]5CC[C@]43C)[C@H]12	µM	=	16
CN(C)CC1CN(C(=O)Nc2ccccc2)C(=N)O1 (centres undefined)	µM	>	100
CCOC(=O)C1=C(N)Oc2cc(OC)ccc2C1c1ccc(F)c(F)c1 (centres undefined)	µM	=	16.8
COc1cc(C2SC(N)=Nc3c2c(C)nn3C(=O)Cc2ccccc2)ccc1O (centres undefined)	µM	>	100
Cn1cc(-c2nc(-c3cn(C)c4ncccc34)cs2)c2cc(F)ccc21	µM	=	12.8
CN(C)CCOc1cccc(NC2=C(Cl)C(=O)C(Nc3cccc(OCCN(C)C)c3)=C(Cl)C2=O)c1	µM	=	1.12
CCCN1CN(C(C(=O)N[C@@H]2C(=O)N3C(C(=O)O)=C(C)CSC23)c2ccccc2)CSC1=S (some centres undefined)	µM	>	100
O=C1C=CC(=O)N1CCCCCCCCCCN1C(=O)C=CC1=O	µM	=	30.4
Cc1c(C)c2ccc(O)cc2[nH]c1=O	µM	>	100
N=C(N)c1ccc(-c2ccc(-c3ccco3)o2)cc1F	µM	=	4.08
Cc1cc(NC(=O)C(=O)Cc2nc3ccccc3s2)ccc1Cl	µM	>	100
CC(=O)OCC(OC(C)=O)C(OC(C)=O)C(OC(C)=O)C(/C=N\Nc1nc2ccccc2c(=O)[nH]1)OC(C)=O (centres undefined)	µM	>	100
CC1(C)CC[C@]2(C(=O)O)CC[C@]3(C)C(=CC[C@@H]4[C@@]5(C)CC[C@@H]6OC(C)(C)OC[C@@]6(C)[C@@H]5CC[C@]43C)[C@H]2C1	µM	=	24
Cc1ccc(OCCn2cc(Nc3ccccc3)c(=O)[nH]c2=O)cc1	µM	>	100
O=C(Nc1cc(Cl)cc(Cl)c1)c1ccc(NC2=C(Cl)C(=O)N(Cc3ccccc3)C2=O)cc1	µM	=	8.74
COC1(C)Cc2c(c(C)c(O)c3c2C(=O)C=C(Cl)C3=O)O1 (centres undefined)	µM	>	100
CN(CCNC(=O)c1cc(-c2ccccc2)nc2ccccc12)CCNC(=O)c1cc(-c2ccccc2)nc2ccccc12	µM	=	23.5
[O-][N+]1=C(c2ccccc2)COc2ccccc21	µM	>	100
COc1ccc2c(c1)c(=O)oc1cc(OC/C(=N\O)c3ccc(F)cc3)ccc12	µM	=	33.7
O=C(O)C#Cc1ccc([N+](=O)[O-])cc1	µM	>	100
COc1cc2c(cc1C)NC(=O)/C2=C/c1c(C)nc2sc(C)cn12	µM	>	100
C/C(CC(=O)Nc1ccc([N+](=O)[O-])cc1)=N/N=C(N)N	µM	>	100
O=C1/C(=c2\c3ccccc3n3c(=O)c4ccccc4nc23)Nc2ccccc21	µM	>	100
CCNC(=O)Cc1nc2c(=O)[nH]cnc2n1C1OC(CO)C(O)C1O (centres undefined)	µM	>	100
Cn1cc(C2=C(c3cccc(NCC(O)CO)c3)C(=O)NC2=O)c2cc(Cl)ccc21 (centres undefined)	µM	=	16.5
CCOC(=O)c1cc(C2(OC)CCN(Cc3ccccc3)C2=O)c(-c2cc(C)no2)[nH]1 (centres undefined)	µM	>	100
C=CCn1c(=S)sc2c(=O)[nH]cnc21	µM	>	100
CC1OC2OC3C(OCC(O)C3O)OC(=O)[C@]34CCC(C)(C)CC3C3=CCC5[C@@]6(C)C[C@H](O)[C@H](OC7OC(CO)C(O)C(O)C7OC7OC(COC(=O)CC(C)(O)CC(=O)OC1C(O)C2O)C(O)C(O)C7O)[C@@](C)(CO)C6CC[C@@]5(C)[C@]3(C)CC4 (some centres undefined)	µM	=	2.4
O=C(CN1CCCC1)Nc1ccc2sc3ccccc3c(=O)c2n1	µM	=	48.1
O=C(CN1C(=O)c2ccccc2C1=O)OCC1CCCN2CCCCC12 (centres undefined)	µM	>	100
Cc1ccccc1Nc1cn(CCOc2ccccc2)c(=O)n(CCOc2ccccc2)c1=O	µM	>	100
